Test system: PluxC-gfp reporter in V. parahaemolyticus
experimental_details: PluxC-gfp reporter in V. parahaemolyticus strains
experimental_context: Vibrio parahaemolyticus, read-out: Inhibition (IC50) of the PluxC-gfp reporter, Vpara D4
Reported pIC50 values are given for each entry in this list.
Convention used: pIC50 is expressed as -log10 of the molar concentration.

Examples with their reported pIC50 follow.
O=S(=O)(c1cccs1)n1cccn1	4.72
O=S(=O)(c1cccs1)n1ccc(-c2ccccc2)n1 [Compound 10B]	6.57
O=S(=O)(c1ccc(Br)s1)n1cccc1	5.55
O=S(=O)(c1ccc(Cl)s1)n1cccn1	4.90

Then this compound:
Request: Quick check: pIC50 on PluxC-gfp reporter in V. parahaemolyticus, item O=S(=O)(c1ccccc1)n1cccn1 ?
Response: 4.90
